Source: patent US10040810B2

# RUN_DESCRIPTION: Solubility in water
# Format: physicochemical
# CONDITION_DESCRIPTION: thermodynamic from solid; distilled water, room temperature, 60 minutes stirring
READOUT_TYPE: solubility at 60 min

Hello, please tell me recorded solubility at 60 min for this one: Cc1cc(C)c(C(=O)P(=O)(O)C(=O)c2c(C)cc(C)cc2C)c(C)c1 [Example 1]
~5000 µg/mL
